# PROTOCOL: cytotoxicity against L-6 rat skeletal myoblasts, resazurin
# Format: cell-based
# CONDITION_NOTES: crude extracts and acid/base fractions, L6 cells, mean of two determinations ± deviation, read-out: IC50 Cytotox (converted)
REPORTED_METRIC: IC50 at 70 h
State the result as a value with its unit after it.

Query :: Find the measured IC50 at 70 h of COc1cc([C@@H]2c3cc4c(cc3[C@H](O)[C@H]3COC(=O)[C@H]23)OCO4)cc(OC)c1OC [Podophyllotoxin, reference compound] and report it.
Result :: 9 ng/mL
